Published pKi for Alpha-1A adrenergic receptor (Homo sapiens), assembled from different documents, is shown next.
Numbers only, as −log10 of the molar value.

> print(dat)
                                   molecule  value.measured
1  COc1cccc(OC)c1[S+]([O-])CCNCCOc1ccccc1OCc1ccccc1 (stereo unspecified)            7.70

For each of the items listed, what is its pKi?
1. COc1ccccc1N1CCN(CC2OCC(c3ccccc3)(c3ccccc3)O2)CC1 (stereo unspecified)
2. CC(C)Oc1ccccc1N1CCN(Cc2ccc(CN3CCCCC3=O)s2)CC1
3. COc1cccc(OCCNCC2COC(c3ccccc3)(c3ccccc3)O2)c1OC (racemic)
4. CCOc1ccccc1N1CCN(CCCNC(=O)N2C(=O)NC(C)=C(C(=O)OC)C2c2ccc(F)c(F)c2)CC1 (stereo unspecified)
5. COc1ccccc1N1CCN(C[C@@H]2CO[C@@](CN3C(=O)CCC3=O)(c3ccccc3)O2)CC1 (relative stereo)
6. O=C(NCCCCN1CCN(c2cccc3[nH]ccc23)CC1)c1ccc2ccccc2c1
7. COc1ccccc1N1CCN(CCn2c(=O)[nH]c3c(sc4ccc(NC(=O)c5ccccc5)cc43)c2=O)CC1

A.
9.58
9.52
7.07
10.00
7.39
7.72
8.96

Okay, here is my list. What is pKi for each of these?
1. CC(C)Oc1ccccc1N1CCN(Cc2cc(CN3CCCCC3=O)n(C)n2)CC1
2. Cc1ccccc1N1CCN(CCCCNC(=O)c2ccc3ccccc3c2)CC1
3. C[C@@H]1CCCN1CCCOc1ccc(-c2ccc(=O)[nH]n2)cc1
4. Cc1ccc(C2(c3ccc(C)cc3)CC(=O)N(CCCN3CCC(C#N)(c4ccccc4Cl)CC3)C2=O)cc1
5. COc1ccc(Cl)cc1N1CCN(CCn2c(C)nc3c(sc4ccccc43)c2=O)CC1
6. Brc1c(NC2=NCCN2)ccc2c1NCCN2
7. Cn1c(=O)cnn(CCCCN2CCN(c3ccccc3OCCF)CC2)c1=O

A.
1: 8.43; 2: 7.52; 3: 5.01; 4: 9.32; 5: 8.46; 6: 5.95; 7: 7.67

For each listed entry, give its pKi.
1. Cc1ccc(C(C(=O)NCCCN2CCC(C#N)(c3ccccc3C(F)(F)F)CC2)c2ccc(C)cc2)cc1
2. Cc1ccc(Cl)cc1N1CCN(CCN2C(=O)CC3(CCCC3)CC2=O)CC1
3. COC(=O)C1=C(C)NC(=O)N(C(=O)NCCCN2CCC(C#N)(c3ccccc3)CC2)C1c1ccc(F)c(F)c1 (stereo unspecified)
4. C[C@H](CN1CCN(c2cc(F)c(F)cc2F)CC1)N1C(=O)CC2(CCCC2)CC1=O
5. COCC1=C(C(=O)OC)C(c2ccc(F)c(F)c2)N(C(=O)NCCCN2CCC(C#N)(c3ccccc3)CC2)C(=O)N1 (stereo unspecified)
6. COc1cc2nc(N3CCN(C(=O)c4ccccn4)[C@H]4CCCC[C@H]43)nc(N)c2cc1OC
7. COc1cc(-c2ccccc2)ccc1OCCNC[C@H]1COc2ccccc2O1
8. CC(=O)CC(=O)NCCCN1CCC(c2ccccc2)(c2ccccc2)CC1

A.
[7.66, 6.72, 8.49, 4.85, 10.00, 7.31, 7.06, 7.00]

* * *

// read-out Ki, gathered for UniProt P35348 from published studies

Examples with answers:
> print(dat)
                            smiles.string  measured.property  value.measured
1           N#Cc1cc(F)cc(C#Cc2csc(F)n2)c1                 Ki         > 10 µM
2  CS(=O)(=O)c1ccc(C(F)(F)F)cc1NCC1=NCCN1                 Ki       > 12.6 µM

Moving on to another molecule below.
Q. Field request: Ki | item: `O=C1CC2(CCCC2)CC(=O)N1CCN1CCN(c2cc(C(F)(F)F)ccc2F)CC1`
A. > 1 µM

* * *

Assembled from different publications: Ki for Alpha-1A adrenergic receptor (Homo sapiens).
One number for each entry, in nM.

Here is how some compounds turned out for Ki.
> print(dat)
                                   compound  unit.of.measure  value.measured
1  COc1ccc(CCN2CCC(c3nc(COCC(F)(F)F)c(-c4ccc(F)cc4)o3)CC2)cc1S(N)(=O)=O               nM             0.2
2  Fc1ccn(Cc2c(F)ccc3c2CC[C@H]3c2ncc[nH]2)n1               nM               5
3  O=C1CC2(CCC2)CC(=O)N1CCN1CCN(c2cc(Cl)ccc2Cl)CC1               nM             120
4            CCCS(=O)(=O)c1ccccc1NCC1=NCCN1               nM            2190
5  COCC1=C(C(=O)OC)C(c2ccc(F)c(F)c2)N(C(=O)N2CCC(N3CCC(C(=O)OC)(c4ccccc4)CC3)CC2)C(=O)N1 (stereo unspecified)               nM             7.5

Batch request: Ki per item, same order as input.
1. CO/C(O)=C1\C(C)=NC(C)=C(C(=O)NCCCN2CCC(c3ccccc3)(c3ccccc3)CC2)C1c1ccc(Cl)c(Cl)c1 (stereo unspecified)
2. COc1ccccc1N1CCN(CCCNC(=O)NN(Cc2ccccc2)c2ccccc2)CC1

A.
1. 1.86
2. 1.7

Provide each entry's Ki from the list below.
1. COc1cccc(OC)c1OCCNCCOc1ccccc1OCc1ccccc1C
2. COc1cccc(N(NC2=NCCO2)c2ccc(C)cc2)c1
3. O=S(=O)(N[C@H]1CC[C@@H](N2CCC(c3ccccc3OCC(F)(F)F)CC2)CC1)c1cc(Cl)ccc1F
4. O=C1CCCCCN1Cc1cc(CN2CCN(c3ccccc3Oc3ccccc3)CC2)on1
5. COc1ccccc1N1CCN(CCCCNc2nccc3ccccc23)CC1
6. CSc1ccc(F)cc1NCC1=NCCN1

A.
[1.58, 5740, 5.9, 86, 6, 33.1]

Below is a list of compounds. For each, state its recorded Ki.
1. COc1ccc(C(=O)N2CCN(c3nc(N)c4cc(OC)c(OC)cc4n3)[C@H]3CCCC[C@@H]32)o1
2. O=C(NCCCCN1CCN(c2ccc(Cl)cc2)CC1)c1ccc2ccccc2c1

A.
1: 27.5; 2: 166

* * *

Target: Alpha-1A adrenergic receptor (Homo sapiens, UniProt P35348)
Sequence (P35348 whole entry): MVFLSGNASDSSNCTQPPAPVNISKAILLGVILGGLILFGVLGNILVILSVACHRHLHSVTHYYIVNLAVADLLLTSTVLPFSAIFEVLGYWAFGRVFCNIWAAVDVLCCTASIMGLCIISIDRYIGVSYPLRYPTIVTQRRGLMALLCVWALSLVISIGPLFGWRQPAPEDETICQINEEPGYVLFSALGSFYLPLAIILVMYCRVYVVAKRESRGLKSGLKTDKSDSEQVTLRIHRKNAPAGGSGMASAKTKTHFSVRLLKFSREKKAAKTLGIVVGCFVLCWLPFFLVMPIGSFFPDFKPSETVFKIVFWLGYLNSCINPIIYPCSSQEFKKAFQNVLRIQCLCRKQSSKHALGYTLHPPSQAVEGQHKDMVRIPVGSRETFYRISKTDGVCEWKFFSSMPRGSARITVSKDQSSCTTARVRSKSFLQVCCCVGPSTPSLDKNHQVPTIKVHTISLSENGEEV
pKi: −log10 of the molar value.
Values of pKi for Alpha-1A adrenergic receptor (Homo sapiens, UniProt P35348), collected from a number of published sources:
Decide using pKi: a value greater than or equal to 7 is condition met, a smaller one is condition not met.

Answered examples (5):
> print(dat)
                                   compound                         target.under.test     category.label
1  O=C(C1CCCCC1)N(CCN1CCN(c2ccccc2)CC1)c1ccccn1  Alpha-1A adrenergic receptor (Homo sapiens, UniProt P35348)  condition not met
2  O=C(NCCCCN1CCN(c2cccc(C(F)(F)F)c2)CC1)c1ccc2ccccc2c1  Alpha-1A adrenergic receptor (Homo sapiens, UniProt P35348)  condition not met
3  COC(=O)C1=C(C)NC(=O)N(C(=O)NCCCN2CCN(c3ccc(C(C)=O)cc3)CC2)C1c1ccc(F)c(F)c1 (stereo not drawn)  Alpha-1A adrenergic receptor (Homo sapiens, UniProt P35348)  condition not met
4  COc1cc2nc(N3CCN(C(=O)c4ccc[nH]4)[C@H]4CCCC[C@H]43)nc(N)c2cc1OC  Alpha-1A adrenergic receptor (Homo sapiens, UniProt P35348)      condition met
5  COc1ccccc1OCCNCC1CSC(c2ccccc2)(c2ccccc2)S1 (racemic)  Alpha-1A adrenergic receptor (Homo sapiens, UniProt P35348)      condition met

Q. Confirm if pKi reported for the compound `COCC1=C(C(=O)OC)[C@H](c2ccc(F)c(F)c2)N(C(=O)N[C@@H]2CC[C@@H](N3CCC(c4ccccn4)CC3)C2)C(=O)N1` is 7 or above.
A. condition met

Q. Is it the case that `CC(C)Oc1ccccc1N1CCN([C@H]2CC[C@@H](NS(=O)(=O)c3cc(Cl)ccc3F)CC2)CC1` has pKi reaching or exceeding 7?
A. condition met
